A collection of binders and their measured Maximum mean fluorescence intensity
- experimental.system: T1, human CD22, endogenous on Raji cells (human, UniProt P20273 20-847)
- T1 construct: whole, on cells; Endogenous protein of the Raji cell line
- T1 sequence (looked up): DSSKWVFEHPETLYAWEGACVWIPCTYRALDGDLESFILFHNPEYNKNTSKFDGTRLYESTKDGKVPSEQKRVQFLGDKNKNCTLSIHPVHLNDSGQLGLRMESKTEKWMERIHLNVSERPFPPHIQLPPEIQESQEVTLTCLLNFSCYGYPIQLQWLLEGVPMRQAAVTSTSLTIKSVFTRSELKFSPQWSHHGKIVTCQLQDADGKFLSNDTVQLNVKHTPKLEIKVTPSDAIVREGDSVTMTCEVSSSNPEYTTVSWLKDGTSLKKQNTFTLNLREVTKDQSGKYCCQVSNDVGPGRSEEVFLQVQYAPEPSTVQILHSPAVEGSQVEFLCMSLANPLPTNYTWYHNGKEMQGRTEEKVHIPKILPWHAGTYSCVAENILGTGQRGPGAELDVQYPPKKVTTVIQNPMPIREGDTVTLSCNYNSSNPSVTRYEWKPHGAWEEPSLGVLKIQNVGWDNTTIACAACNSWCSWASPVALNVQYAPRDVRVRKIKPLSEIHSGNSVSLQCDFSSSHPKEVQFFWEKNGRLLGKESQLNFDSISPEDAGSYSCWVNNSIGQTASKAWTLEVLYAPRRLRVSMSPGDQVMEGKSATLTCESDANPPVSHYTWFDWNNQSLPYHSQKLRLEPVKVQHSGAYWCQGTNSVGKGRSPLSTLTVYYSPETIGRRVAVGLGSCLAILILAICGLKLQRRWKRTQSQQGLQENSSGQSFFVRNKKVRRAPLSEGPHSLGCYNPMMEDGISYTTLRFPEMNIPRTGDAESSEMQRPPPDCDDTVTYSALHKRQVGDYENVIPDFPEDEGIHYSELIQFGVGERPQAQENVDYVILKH
- assay.summary: FACS, Raji cells
- Protocol: The required cells were scale-up cultured in a T-75 cell culture flask to the logarithmic growth phase. For the adherent cell CHO-K1, the medium was aspirated, the cells were washed 2 times with PBS buffer, and then digested with trypsin. After the digestion was terminated, the cells were washed 2 times with PBS buffer. […] Data analysis was performed by software (CellQuest) to obtain the mean fluorescence density (MFI)of the cells. […]
A number alone suffices; assume MFI.

Below, each entry is followed by its recorded Maximum mean fluorescence intensity result.
F2.127.11 human-murine chimeric antibody (antibody, human IgG1, lambda, V domains shown, Chimeric, human IgG1 / lambda; VL tied by name) VH: QVTLKESGPGILQPSQTLSLTCSFSGFSLSTFGMGVGWIRQPSGKGLEWLAHIWWDDDKHYNPALKSRLTISKDTSRNQVFLKIANVDTADGATYFCARDNWVSSLDYWGQGTSVIVSS VL: QPVITQSSSASFSLGASAELTCTLSSQHSTYTIEWYQQQPLKPPKYVMGLKKDGSHSTGDGIPDRFSGSSSGADRYLSISNIQPEDEAIYICGVSDTIKEQFVYVFGGGTKVTVLG | 24400
F2.151.13 human-murine chimeric antibody (antibody, human IgG1, lambda, V domains shown, Chimeric, human IgG1 / lambda) VH: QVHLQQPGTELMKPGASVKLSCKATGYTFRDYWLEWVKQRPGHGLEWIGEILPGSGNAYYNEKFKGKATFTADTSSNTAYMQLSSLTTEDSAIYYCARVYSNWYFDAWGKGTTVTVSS VL: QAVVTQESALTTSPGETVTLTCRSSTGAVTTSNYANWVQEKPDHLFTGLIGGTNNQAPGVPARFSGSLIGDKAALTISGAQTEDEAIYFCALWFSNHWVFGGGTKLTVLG | 18800

Query binder follows.
Form field: reported Maximum mean fluorescence intensity of F2.173.9 human-murine chimeric antibody (antibody, human IgG1, lambda, V domains shown, Chimeric, human IgG1 / lambda) VH: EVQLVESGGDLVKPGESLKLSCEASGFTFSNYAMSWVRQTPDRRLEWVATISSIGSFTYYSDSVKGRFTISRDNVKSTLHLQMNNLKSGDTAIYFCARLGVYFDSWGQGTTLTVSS VL: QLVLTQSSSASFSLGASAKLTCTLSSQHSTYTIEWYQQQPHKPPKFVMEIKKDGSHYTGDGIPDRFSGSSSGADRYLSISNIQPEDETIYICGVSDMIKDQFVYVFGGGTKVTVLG
18900
